This listing pairs compounds with measured IC50.
tested system: Voltage-gated N-type calcium channel alpha-1B subunit/Amyloid beta A4 precursor protein-binding family A member 1 (Homo sapiens, UniProt Q00975+Q02410)
Sequence (Q00975 whole entry): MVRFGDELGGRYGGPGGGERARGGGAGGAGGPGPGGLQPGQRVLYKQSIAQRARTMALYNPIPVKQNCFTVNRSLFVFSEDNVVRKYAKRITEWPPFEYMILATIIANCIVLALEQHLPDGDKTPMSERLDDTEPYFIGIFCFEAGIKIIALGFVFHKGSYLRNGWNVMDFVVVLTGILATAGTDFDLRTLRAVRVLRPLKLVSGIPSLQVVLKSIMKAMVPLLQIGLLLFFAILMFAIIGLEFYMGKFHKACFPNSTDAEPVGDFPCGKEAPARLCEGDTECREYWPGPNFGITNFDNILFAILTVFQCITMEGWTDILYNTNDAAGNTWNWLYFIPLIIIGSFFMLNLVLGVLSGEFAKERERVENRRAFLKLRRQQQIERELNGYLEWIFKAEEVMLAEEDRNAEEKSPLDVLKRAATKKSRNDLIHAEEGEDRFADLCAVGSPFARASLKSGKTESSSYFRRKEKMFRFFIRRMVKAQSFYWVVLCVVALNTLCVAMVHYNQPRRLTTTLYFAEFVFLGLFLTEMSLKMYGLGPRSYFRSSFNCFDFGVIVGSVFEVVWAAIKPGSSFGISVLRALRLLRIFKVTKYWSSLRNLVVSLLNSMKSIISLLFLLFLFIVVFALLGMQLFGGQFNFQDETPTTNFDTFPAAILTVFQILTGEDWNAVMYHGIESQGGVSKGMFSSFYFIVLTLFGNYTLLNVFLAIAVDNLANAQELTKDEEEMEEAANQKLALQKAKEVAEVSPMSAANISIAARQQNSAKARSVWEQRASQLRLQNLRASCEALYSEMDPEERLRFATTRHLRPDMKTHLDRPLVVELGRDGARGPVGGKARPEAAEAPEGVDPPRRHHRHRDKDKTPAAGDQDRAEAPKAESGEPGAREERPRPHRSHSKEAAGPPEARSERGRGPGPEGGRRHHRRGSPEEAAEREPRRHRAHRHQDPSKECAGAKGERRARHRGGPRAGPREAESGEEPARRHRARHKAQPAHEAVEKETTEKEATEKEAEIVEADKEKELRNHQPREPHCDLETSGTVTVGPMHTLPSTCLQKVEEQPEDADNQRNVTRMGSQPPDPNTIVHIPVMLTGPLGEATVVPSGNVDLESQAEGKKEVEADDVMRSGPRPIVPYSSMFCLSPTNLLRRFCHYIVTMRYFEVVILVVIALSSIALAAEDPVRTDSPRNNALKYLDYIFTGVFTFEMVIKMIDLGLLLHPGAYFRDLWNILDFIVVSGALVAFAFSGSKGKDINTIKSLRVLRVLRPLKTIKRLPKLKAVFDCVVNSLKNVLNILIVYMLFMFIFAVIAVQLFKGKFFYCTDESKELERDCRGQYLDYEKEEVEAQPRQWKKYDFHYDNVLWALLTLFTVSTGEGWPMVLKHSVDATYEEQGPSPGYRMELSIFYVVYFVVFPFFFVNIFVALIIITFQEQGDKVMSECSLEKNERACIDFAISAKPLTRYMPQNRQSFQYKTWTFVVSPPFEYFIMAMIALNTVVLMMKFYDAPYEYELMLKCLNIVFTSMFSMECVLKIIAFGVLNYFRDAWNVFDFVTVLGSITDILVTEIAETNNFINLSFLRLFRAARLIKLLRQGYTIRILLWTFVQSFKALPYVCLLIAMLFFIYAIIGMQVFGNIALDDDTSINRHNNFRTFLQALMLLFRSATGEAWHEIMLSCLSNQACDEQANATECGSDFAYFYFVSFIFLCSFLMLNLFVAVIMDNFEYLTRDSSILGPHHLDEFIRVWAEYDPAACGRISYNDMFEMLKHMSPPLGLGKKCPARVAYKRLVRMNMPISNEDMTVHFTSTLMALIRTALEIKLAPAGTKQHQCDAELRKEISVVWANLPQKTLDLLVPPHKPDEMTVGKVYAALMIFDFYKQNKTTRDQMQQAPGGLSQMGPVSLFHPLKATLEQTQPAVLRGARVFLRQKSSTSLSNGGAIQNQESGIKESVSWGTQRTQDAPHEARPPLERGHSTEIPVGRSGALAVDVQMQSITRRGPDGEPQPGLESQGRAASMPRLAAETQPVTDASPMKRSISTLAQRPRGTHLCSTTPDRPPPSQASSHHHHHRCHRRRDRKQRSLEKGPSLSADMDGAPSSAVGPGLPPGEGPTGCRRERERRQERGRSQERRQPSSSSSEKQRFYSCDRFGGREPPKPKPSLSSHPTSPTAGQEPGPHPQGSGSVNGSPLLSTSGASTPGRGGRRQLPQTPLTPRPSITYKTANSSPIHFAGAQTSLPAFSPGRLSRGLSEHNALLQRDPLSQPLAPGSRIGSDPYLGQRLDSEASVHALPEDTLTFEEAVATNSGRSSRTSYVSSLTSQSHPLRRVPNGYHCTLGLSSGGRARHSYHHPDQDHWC
Sequence (Q02410 whole entry): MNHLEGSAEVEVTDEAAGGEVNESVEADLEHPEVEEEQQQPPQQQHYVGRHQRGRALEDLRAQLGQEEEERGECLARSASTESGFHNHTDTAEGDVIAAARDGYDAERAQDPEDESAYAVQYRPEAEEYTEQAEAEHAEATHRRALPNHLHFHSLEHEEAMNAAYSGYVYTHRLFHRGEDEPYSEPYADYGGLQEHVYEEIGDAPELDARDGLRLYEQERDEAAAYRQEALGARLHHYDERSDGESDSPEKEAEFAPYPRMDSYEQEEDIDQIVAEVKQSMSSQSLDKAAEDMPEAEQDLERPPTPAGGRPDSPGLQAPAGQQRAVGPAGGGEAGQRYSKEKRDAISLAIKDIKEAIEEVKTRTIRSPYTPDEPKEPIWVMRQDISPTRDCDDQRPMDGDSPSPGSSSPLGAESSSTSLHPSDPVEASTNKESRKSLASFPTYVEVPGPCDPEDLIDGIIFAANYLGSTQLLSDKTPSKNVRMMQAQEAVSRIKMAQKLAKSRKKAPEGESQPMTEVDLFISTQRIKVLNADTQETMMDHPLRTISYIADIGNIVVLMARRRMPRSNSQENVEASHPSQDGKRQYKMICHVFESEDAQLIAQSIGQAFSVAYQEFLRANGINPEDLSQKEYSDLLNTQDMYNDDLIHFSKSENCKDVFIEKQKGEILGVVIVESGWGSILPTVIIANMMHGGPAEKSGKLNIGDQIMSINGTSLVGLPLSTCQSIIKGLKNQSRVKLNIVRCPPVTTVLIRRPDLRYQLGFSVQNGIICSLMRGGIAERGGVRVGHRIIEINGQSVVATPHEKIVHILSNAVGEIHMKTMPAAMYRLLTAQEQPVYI
Type: protein assay
The source made the active and inactive calls.

Incoming: I am curious: what IC50 value has been reported for `O=C(O)CCN1C(=O)/C(=C2\C(=O)N(Cc3ccccc3Cl)c3ccccc32)SC1=S` ?
Outgoing: > 50 µM (inactive)

Incoming: What about `CCCCCCc1cc2cc(-c3nnc(-c4ccccc4)o3)c(=O)oc2cc1O` ?
Outgoing: > 50 µM (inactive)

Incoming: Check `COC(=O)c1ccccc1NC(=O)c1cc(-c2ccco2)on1` too.
Outgoing: > 50 µM (inactive)

Incoming: Then `O=C(O)c1ccc(Nc2nc(-c3cc4ccccc4oc3=O)cs2)cc1O` ?
Outgoing: > 50 µM (inactive)

Incoming: Note, next up: `CC(=O)Nc1ccc(NC(=O)c2cc(-c3ccc(C)c(C)c3O)[nH]n2)cc1`
Outgoing: > 50 µM (inactive)

Incoming: // same read-out, input: `Cc1cc(C)c2c(=O)n(CC(=O)NCCCN3CCOCC3)sc2n1`
Outgoing: 46 µM (active)

###

tested system: UniProt:Q9H0H5
Sequence (Q9H0H5 whole entry): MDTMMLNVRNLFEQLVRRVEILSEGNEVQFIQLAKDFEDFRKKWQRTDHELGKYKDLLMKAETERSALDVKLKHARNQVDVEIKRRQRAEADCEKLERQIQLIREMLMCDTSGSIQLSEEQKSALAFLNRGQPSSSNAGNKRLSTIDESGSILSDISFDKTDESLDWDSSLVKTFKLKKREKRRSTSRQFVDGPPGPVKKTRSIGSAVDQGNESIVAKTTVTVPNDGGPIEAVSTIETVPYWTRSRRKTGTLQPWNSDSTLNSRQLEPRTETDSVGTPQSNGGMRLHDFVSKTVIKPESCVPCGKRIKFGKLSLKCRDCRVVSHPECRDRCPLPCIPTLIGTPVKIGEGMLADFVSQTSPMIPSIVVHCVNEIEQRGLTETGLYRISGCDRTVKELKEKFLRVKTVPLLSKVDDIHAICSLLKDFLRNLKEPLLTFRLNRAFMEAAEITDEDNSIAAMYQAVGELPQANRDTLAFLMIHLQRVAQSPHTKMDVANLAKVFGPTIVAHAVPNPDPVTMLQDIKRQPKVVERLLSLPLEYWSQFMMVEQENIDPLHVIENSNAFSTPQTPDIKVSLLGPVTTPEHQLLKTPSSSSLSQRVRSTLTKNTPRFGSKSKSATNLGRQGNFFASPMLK
test description: MgcRacGAP GTPase-activating activity inhibitors, confirmation, biochemical, ADP Hunter fluorescence, primary and confirmatory (AID 624330)
Type: functional
Calls of active or inactive are those of the source.
experimental endpoint: IC50

INSERT INTO results (compound, experimental_endpoint, result) VALUES
  ('CCN(/C=N/C1=NN(c2cccc(C(F)(F)F)c2)CC1)CC', 'IC50', '32.9 µM (active)'),
  ('COc1cc(/C=N/NC(=O)C(C)Nc2nnc(O)nc2O)ccc1O (centres undefined)', 'IC50', '57.2 µM (active)'),
  ('Cc1n[nH]c(-c2ccc(O)cc2O)c1Oc1ccccc1', 'IC50', '34.2 µM (active)');

Attention now turns to another entry.
Incoming: Could you share which IC50 value was measured for `CNc1nnc(-c2ccc(N(C)C)cc2)s1` ?
Outgoing: 99.3 µM (active)

###

tested system: Nucleotide-binding oligomerization domain-containing protein 2 (Homo sapiens)
Sequence (Q9HC29 whole entry, the tested form may be a part): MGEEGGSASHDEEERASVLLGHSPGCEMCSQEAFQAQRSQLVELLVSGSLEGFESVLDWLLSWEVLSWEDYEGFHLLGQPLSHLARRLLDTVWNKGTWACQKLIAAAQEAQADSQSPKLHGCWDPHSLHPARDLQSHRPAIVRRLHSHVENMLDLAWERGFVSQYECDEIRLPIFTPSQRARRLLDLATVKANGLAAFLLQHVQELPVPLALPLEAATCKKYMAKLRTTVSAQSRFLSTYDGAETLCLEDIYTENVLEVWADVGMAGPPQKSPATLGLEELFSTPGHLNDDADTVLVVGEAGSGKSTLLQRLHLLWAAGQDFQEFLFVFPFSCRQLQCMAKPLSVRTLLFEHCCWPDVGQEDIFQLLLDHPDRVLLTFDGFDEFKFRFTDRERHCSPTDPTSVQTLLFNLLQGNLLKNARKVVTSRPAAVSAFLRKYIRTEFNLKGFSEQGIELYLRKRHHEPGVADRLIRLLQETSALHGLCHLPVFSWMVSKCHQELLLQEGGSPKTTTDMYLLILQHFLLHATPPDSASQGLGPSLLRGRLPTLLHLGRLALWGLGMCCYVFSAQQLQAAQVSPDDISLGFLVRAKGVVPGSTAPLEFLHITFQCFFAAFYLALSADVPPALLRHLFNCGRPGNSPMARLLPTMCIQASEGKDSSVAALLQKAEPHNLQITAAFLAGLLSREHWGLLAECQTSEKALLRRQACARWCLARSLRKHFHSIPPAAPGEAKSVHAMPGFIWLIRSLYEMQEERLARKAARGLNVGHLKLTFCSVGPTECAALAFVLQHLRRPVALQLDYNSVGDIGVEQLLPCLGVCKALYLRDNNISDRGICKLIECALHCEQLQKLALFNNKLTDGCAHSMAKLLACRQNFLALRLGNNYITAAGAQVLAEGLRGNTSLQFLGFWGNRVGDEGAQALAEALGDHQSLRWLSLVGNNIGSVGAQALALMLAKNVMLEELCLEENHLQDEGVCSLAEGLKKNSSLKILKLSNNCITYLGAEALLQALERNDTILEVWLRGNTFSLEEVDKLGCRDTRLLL
test description: NOD2 signaling inhibitors, cell-based, luminescence, uHTS, HEK293 (AID 1566)
Assay type: functional
Active and inactive are the calls of the source.
Response enum: active, inactive

Worked examples follow.
INSERT INTO measurements (compound_structure, tested_system, class_assignment) VALUES
  ('O=[N+]([O-])c1cc(Cl)cc(/C=N\Nc2ccccn2)c1O', 'Nucleotide-binding oligomerization domain-containing protein 2 (Homo sapiens)', 'inactive'),
  ('CCOC(=O)/C=C/C(=O)Nc1ccc(S(=O)(=O)N(C)c2ccccc2)cc1', 'Nucleotide-binding oligomerization domain-containing protein 2 (Homo sapiens)', 'inactive'),
  ('CCS(=O)(=O)c1nnnn1-c1ccccc1S(C)(=O)=O', 'Nucleotide-binding oligomerization domain-containing protein 2 (Homo sapiens)', 'inactive'),
  ('CCOC(=O)c1c(C)[nH]c(C)c1C(=O)CSc1nc2ccccc2c(=O)n1-c1ccc(CC)cc1', 'Nucleotide-binding oligomerization domain-containing protein 2 (Homo sapiens)', 'active'),
  ('COc1ccccc1N1CCN(c2ncnc3sc(C)c(-c4ccccc4)c23)CC1', 'Nucleotide-binding oligomerization domain-containing protein 2 (Homo sapiens)', 'active');

With those in mind, consider the next compound.
Incoming: // param item: `CC(=O)Nc1ccccc1OCC(=O)c1cc(C)n(Cc2cccs2)c1C` ; yields the recorded call
Outgoing: inactive
